- Test system: rat adipocyte GPI-PLC
- MEASUREMENT PROTOCOL: adipocyte GPI-PLC assay (plasma membranes or hc/lcDIGs, AChE substrate, TX-114 partitioning)
- Assay type: biochemical
- STATED CONDITIONS: GPI-PLC of hcDIGs from rat adipocytes; inhibitor 0.05 μM-1 mM
pIC50: −log10 of the molar value.
MEASURED QUANTITY: pIC50

Query: For CCCCCCCCCCCCP1(=O)O[C@@H]2[C@H](O)[C@@H](O)[C@H](O)[C@@H](O)[C@@H]2O1 (stereo partly shown) , what is its reported pIC50?
Reply: 6.30 to 6.70
